- SYSTEM: DNA topoisomerase 2-alpha (Homo sapiens) (UniProt P11388)
- Sequence (P11388 whole entry): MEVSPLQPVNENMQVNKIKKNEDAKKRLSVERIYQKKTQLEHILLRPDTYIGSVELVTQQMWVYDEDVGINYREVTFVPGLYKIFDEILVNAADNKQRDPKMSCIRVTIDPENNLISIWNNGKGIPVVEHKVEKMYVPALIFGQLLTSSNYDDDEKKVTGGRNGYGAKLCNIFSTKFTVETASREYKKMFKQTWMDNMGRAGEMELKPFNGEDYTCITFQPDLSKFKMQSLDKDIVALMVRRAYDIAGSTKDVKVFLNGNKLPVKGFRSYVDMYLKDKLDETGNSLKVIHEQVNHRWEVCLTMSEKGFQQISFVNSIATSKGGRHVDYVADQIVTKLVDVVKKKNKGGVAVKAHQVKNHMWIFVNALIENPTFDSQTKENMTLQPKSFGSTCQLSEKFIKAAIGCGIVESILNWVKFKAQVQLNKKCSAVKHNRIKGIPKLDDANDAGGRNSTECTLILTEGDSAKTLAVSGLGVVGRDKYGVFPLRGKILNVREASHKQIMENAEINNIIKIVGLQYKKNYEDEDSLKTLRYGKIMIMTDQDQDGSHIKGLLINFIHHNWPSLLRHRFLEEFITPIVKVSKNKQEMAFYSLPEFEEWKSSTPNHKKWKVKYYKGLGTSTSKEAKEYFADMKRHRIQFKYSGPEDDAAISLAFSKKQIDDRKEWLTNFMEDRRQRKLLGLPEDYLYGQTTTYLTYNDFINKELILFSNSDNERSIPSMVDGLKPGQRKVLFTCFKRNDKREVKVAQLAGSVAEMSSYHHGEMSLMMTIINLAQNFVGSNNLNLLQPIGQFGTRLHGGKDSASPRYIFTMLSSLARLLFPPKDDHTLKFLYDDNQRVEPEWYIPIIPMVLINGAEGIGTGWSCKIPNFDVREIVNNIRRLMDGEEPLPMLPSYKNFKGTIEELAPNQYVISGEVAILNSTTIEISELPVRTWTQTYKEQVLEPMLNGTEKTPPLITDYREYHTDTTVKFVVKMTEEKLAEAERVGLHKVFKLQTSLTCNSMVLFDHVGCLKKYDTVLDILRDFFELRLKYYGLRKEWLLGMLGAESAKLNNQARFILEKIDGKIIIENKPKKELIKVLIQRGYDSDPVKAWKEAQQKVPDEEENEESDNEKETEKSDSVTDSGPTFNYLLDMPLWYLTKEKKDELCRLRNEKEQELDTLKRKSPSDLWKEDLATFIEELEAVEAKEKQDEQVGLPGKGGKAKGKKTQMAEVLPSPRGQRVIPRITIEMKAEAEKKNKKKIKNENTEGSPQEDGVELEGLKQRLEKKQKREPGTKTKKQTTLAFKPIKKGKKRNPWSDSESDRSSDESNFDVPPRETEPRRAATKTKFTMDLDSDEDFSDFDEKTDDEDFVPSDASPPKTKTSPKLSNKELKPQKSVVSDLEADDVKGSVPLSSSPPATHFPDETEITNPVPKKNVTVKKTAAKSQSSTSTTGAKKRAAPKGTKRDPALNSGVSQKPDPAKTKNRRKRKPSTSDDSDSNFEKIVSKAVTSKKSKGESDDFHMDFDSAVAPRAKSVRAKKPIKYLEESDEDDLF
- PROTOCOL_NOTES: Inhibition of Top2alpha (unknown origin)-mediated pBR322 DNA cleavage using ethidium bromide staining at 100 uM after 30 mins by electrophoresis analysis
Active and inactive are the calls of the source. No cut-off for these calls is given here.
// allowed return values: active, inactive

Check out these entries, answers already filled in.
O=C1c2cc(O)ccc2SC2c3[nH]c4ccc(O)cc4c3CCN12 (stereo unspecified) :: active
O=C1c2ccccc2S(=O)(=O)C2c3[nH]c4ccc(O)cc4c3CCN12 (stereo unspecified) :: inactive
O=C1c2cc(O)ccc2OC2c3[nH]c4ccc(O)cc4c3CCN12 (stereo unspecified) :: active
O=C1c2ccccc2SC2c3[nH]c4ccccc4c3CCN12 (stereo unspecified) :: inactive
Nc1ccc2c(c1)C(=O)N1CCc3c([nH]c4ccc(O)cc34)C1O2 (stereo unspecified) :: inactive
COc1ccc2[nH]c3c(c2c1)CCN1C(=O)c2ccccc2S(=O)(=O)C31 (stereo unspecified) :: active
O=C1c2cc(Cl)ccc2SC2c3[nH]c4ccc(O)cc4c3CCN12 (stereo unspecified) :: active
O=C1c2ccccc2SC2c3[nH]c4ccc(O)cc4c3CCN12 (stereo unspecified) :: inactive
O=C1c2cc(Cl)ccc2OC2c3[nH]c4ccc(O)cc4c3CCN12 (stereo unspecified) :: inactive
COc1ccc2c(c1)C(=O)N1CCc3c([nH]c4ccc(O)cc34)C1S2 (stereo unspecified) :: inactive

Exercise: Give the logged outcome of this assay for the following compound: O=C1c2ccccc2OC2c3[nH]c4ccc(O)cc4c3CCN12 (stereo unspecified)
Solution: inactive
